- target-under-test: human Glu-plasminogen (Homo sapiens, UniProt P00747)
- Sequence (P00747 20-810 limits assumed): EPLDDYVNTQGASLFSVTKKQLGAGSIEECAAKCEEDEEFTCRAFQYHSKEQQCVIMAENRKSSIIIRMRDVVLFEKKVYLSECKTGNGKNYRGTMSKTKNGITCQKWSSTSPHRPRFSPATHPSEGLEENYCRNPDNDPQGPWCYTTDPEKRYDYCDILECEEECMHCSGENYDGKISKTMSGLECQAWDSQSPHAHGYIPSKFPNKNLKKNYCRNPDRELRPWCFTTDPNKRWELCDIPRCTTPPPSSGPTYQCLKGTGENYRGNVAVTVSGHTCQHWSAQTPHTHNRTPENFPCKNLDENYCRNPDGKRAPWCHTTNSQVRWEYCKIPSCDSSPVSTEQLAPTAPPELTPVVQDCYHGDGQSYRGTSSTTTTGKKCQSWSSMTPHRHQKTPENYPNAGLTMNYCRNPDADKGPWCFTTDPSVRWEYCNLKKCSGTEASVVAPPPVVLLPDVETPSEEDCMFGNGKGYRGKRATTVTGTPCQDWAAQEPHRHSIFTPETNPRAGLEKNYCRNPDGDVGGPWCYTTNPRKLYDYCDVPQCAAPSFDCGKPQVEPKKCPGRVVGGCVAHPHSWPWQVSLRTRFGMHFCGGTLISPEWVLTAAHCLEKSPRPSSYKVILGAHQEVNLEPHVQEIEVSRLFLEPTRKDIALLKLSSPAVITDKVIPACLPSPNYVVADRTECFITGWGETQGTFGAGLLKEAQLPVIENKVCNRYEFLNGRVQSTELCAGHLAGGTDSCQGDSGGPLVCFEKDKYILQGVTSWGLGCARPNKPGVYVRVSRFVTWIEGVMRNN
pIC50: −log10 of the molar value.
Respond with MET for pIC50 values of 5 and above, NOT MET for values below.

compound	category
O=c1cc([C@H]2CCN[C@H](Cc3cc(F)cc(F)c3)C2)o[nH]1 [Example 132]	MET
CC(C)(C)c1cc(C[C@@H]2C[C@H](c3cc(=O)[nH]o3)CCN2)cc(C(C)(C)C)c1 [Example 147]	NOT MET
O=c1cc([C@@H]2CCN[C@@H](c3ccc(Cl)c(F)c3)C2)o[nH]1 (relative stereo) [Example 50]	MET
Cn1nnnc1[C@H]1C[C@@H](c2cc(=O)[nH]o2)CCN1 [Example 83]	NOT MET
O=c1cc([C@H]2CCN[C@@H](Cc3ccc(C(F)(F)F)cc3)C2)o[nH]1 [Example 104]	MET
O=c1cc([C@@H]2CCN[C@H](Cc3cc(F)cc(C(F)(F)F)c3)C2)o[nH]1 [Example 138]	NOT MET
O=c1cc([C@H]2CCN[C@@H](Cc3c(F)cccc3F)C2)o[nH]1 [Example 127]	MET
O=c1cc([C@@H]2CCN[C@@H](c3ccc(Cl)cc3Cl)C2)o[nH]1 [Example 54]	NOT MET

----------
// each record: one item and its IC50 for UniProt P00747
measured-attribute: IC50

molecule	measured-attribute	value-measured
O=c1cc([C@@H]2CCN[C@H](Cc3ccc(F)cc3F)C2)o[nH]1	IC50	69.1 µM
O=c1cc([C@H]2CCN[C@@H](c3ccccc3)C2)o[nH]1	IC50	8 µM
O=c1cc([C@@H]2CCN[C@@H](C(F)F)C2)o[nH]1 (relative stereo)	IC50	31.2 µM
O=c1cc([C@@H]2CCN[C@@H](Cc3ccc(Cl)cc3)C2)o[nH]1 (relative stereo)	IC50	5.6 µM
O=c1cc([C@@H]2CCN[C@H](Cc3cc(F)cc(F)c3)C2)o[nH]1	IC50	128 µM
O=c1cc([C@H]2CCN[C@@H](c3ccc(Cl)cc3F)C2)o[nH]1	IC50	2.35 µM
O=c1cc([C@@H]2CCN[C@H](c3ccc(C(F)(F)F)cc3)C2)o[nH]1	IC50	150 µM
O=c1cc([C@@H]2CCN[C@@H](Cc3ccc(OC(F)(F)F)cc3)C2)o[nH]1 (relative stereo)	IC50	6.5 µM
O=c1cc([C@@H]2CCN[C@@H](c3ccc(Cl)cc3F)C2)o[nH]1 (relative stereo)	IC50	90.7 µM
O=c1cc([C@@H]2CCN[C@@H](c3cc(F)c(C(F)(F)F)c(F)c3)C2)o[nH]1 (relative stereo)	IC50	11.6 µM
O=c1cc([C@@H]2CCN[C@H](c3ccc(Cl)cc3Cl)C2)o[nH]1	IC50	1940 µM
O=c1cc([C@@H]2CCN[C@@H](Cc3ccc(C(F)(F)F)cc3)C2)o[nH]1	IC50	88.8 µM
O=c1cc([C@@H]2CCN[C@@H](CCc3ccc(F)cc3)C2)o[nH]1 (relative stereo)	IC50	4.6 µM
O=c1cc([C@H]2CCN[C@@H](c3ccc(F)c(F)c3)C2)o[nH]1	IC50	1 µM
Cc1cc(C(F)(F)F)ccc1[C@H]1C[C@@H](c2cc(=O)[nH]o2)CCN1	IC50	0.6 µM
CC(C)(C[C@@H]1C[C@@H](c2cc(=O)[nH]o2)CCN1)c1ccccc1	IC50	1.6 µM
O=c1cc([C@H]2CCN[C@@H](Cc3ccc(Cl)cc3)C2)o[nH]1	IC50	0.8 µM

----------
human Glu-plasminogen (Homo sapiens) data, read-out log10 of IC50
measured-attribute: log10 of IC50 (log10 of the value in µM)

molecule	value-measured
O=c1cc([C@@H]2CCN[C@H](c3ccc(C(F)(F)F)c(F)c3)C2)o[nH]1	2.28
O=c1cc([C@H]2CCN[C@@H](CCc3ccc(F)cc3)C2)o[nH]1	0.04
CC(C)(C)c1cc(C[C@H]2C[C@H](c3cc(=O)[nH]o3)CCN2)cc(C(C)(C)C)c1 (relative stereo)	0.43
CC(C)(C)c1ccc([C@H]2C[C@@H](c3cc(=O)[nH]o3)CCN2)s1	1.54
O=c1cc([C@H]2CCN[C@@H](c3ccc(F)cc3Cl)C2)o[nH]1	0.15
O=c1cc([C@@H]2CCN[C@H](CC3CCC(F)(F)CC3)C2)o[nH]1	2.01
O=c1cc([C@H]2CCN[C@@H](Cc3cccc(C(F)(F)F)c3)C2)o[nH]1	0.23
O=c1cc([C@@H]2CCN[C@@H](c3ccc(OC(F)(F)F)cc3F)C2)o[nH]1 (relative stereo)	1.85
